B1: HDV Ribozyme (parent)
chain: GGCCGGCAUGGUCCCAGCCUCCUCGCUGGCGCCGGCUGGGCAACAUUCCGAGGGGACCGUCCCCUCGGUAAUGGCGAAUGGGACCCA

# Variants of: B1
# Assay explanation: self-cleavage, relative activity (ratio to wild type); higher = more cleavage; co-transcriptional
Label rule, in plain words: self-cleavage of 0.2 and up is class 1, under 0.2 is class 0.

Entry C14A G38U : is its self-cleavage no less than 0.2?
class 0

Entry G2A U79G : is its self-cleavage no less than 0.2?
class 0

Entry C21G G38U : is its self-cleavage no less than 0.2?
class 0

Entry G59C G82C : is its self-cleavage no less than 0.2?
class 1

Entry U27G C30A : is its self-cleavage no less than 0.2?
class 1

Entry C7A G53C : is its self-cleavage no less than 0.2?
class 1

Entry G5U U20G : is its self-cleavage no less than 0.2?
class 0

Entry U65G G81C : is its self-cleavage no less than 0.2?
class 1

Entry C22A G28A : is its self-cleavage no less than 0.2?
class 0

Entry C7G G29U : is its self-cleavage no less than 0.2?
class 0

Entry C19A C58U : is its self-cleavage no less than 0.2?
class 0

Entry C14A C48U : is its self-cleavage no less than 0.2?
class 1

Entry C13G C58G : is its self-cleavage no less than 0.2?
class 0

Entry G39A C57A : is its self-cleavage no less than 0.2?
class 1

Entry G10U A77U : is its self-cleavage no less than 0.2?
class 0

Entry U37A A77G : is its self-cleavage no less than 0.2?
class 1

Entry C85G A87G : is its self-cleavage no less than 0.2?
class 1

Entry A8C C44A : is its self-cleavage no less than 0.2?
class 1

Entry G74C C75U : is its self-cleavage no less than 0.2?
class 0

Entry C26G A56C : is its self-cleavage no less than 0.2?
class 1

Entry G35C U79A : is its self-cleavage no less than 0.2?
class 0

Entry G68C C75G : is its self-cleavage no less than 0.2?
class 0

Entry C14A C26A : is its self-cleavage no less than 0.2?
class 1

Entry C7U G50C : is its self-cleavage no less than 0.2?
class 1

Entry A16U G76U : is its self-cleavage no less than 0.2?
class 1

Entry C63G G68A : is its self-cleavage no less than 0.2?
class 1

Entry U65C G76C : is its self-cleavage no less than 0.2?
class 1

Entry C36U G40A : is its self-cleavage no less than 0.2?
class 1

Entry G35C A77U : is its self-cleavage no less than 0.2?
class 0

Entry A16U A77C : is its self-cleavage no less than 0.2?
class 0

Entry G11U G17A : is its self-cleavage no less than 0.2?
class 1

Entry G6C G73A : is its self-cleavage no less than 0.2?
class 0

Entry C30U C49A : is its self-cleavage no less than 0.2?
class 1

Entry C24G A43G : is its self-cleavage no less than 0.2?
class 0

Entry A43U A56C : is its self-cleavage no less than 0.2?
class 1

Entry A51U C64A : is its self-cleavage no less than 0.2?
class 1

Entry A42C C48A : is its self-cleavage no less than 0.2?
class 1

Entry C7A G68C : is its self-cleavage no less than 0.2?
class 1

Entry G35U G50C : is its self-cleavage no less than 0.2?
class 1

Entry G35A C44A : is its self-cleavage no less than 0.2?
class 0

Entry G40A : is its self-cleavage no less than 0.2?
class 1

Entry G11A C41G : is its self-cleavage no less than 0.2?
class 0

Entry C7U C62G : is its self-cleavage no less than 0.2?
class 1

Entry C19G C22U : is its self-cleavage no less than 0.2?
class 0

Entry G10U C48U : is its self-cleavage no less than 0.2?
class 1

Hello, the source for this data is the RNAGym collection of RNA variant scans (doi:10.7554/elife.80360), in case you need it.
